experimental-target: P2X7 receptor (Homo sapiens)
Construct: host or cells: THP-1 cells differentiated with LPS and IFN-γ
Sequence (Q99572 whole entry): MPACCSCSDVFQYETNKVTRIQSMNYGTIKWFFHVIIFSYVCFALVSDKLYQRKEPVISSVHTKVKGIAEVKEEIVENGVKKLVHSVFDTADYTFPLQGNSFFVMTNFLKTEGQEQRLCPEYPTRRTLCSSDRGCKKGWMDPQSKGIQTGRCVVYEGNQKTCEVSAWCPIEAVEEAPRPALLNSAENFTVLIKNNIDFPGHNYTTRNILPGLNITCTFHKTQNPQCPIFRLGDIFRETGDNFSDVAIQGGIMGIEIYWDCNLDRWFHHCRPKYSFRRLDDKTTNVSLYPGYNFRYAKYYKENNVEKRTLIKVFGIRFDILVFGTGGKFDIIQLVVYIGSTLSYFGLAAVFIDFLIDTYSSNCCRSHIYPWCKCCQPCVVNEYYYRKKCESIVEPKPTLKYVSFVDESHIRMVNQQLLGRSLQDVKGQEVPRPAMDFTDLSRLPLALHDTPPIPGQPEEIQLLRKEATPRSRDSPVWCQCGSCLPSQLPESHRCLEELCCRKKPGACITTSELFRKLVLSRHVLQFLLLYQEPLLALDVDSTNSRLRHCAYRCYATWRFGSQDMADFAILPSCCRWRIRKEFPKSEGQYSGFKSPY
assay-method-text: IL-1β release assay in differentiated THP-1 cells stimulated with BzATP (Example 9)
Format: cell-based
assay-context: 0.3 μM compound; differentiated THP-1 cells, BzATP 250 uM; symbols + to ++++; read-out: IL-1β % Inhib. @ 0.3 μM
readout-name: inhibition at 0.3 µM

Example results:
Input COc1ccc(OC)c(CC(=O)Nc2cccc3c(=O)n(Cc4cccnc4)ccc23)c1 . Output inhibition at 0.3 µM: 0 to 25%

Input COc1ccc(CC(=O)Nc2cccc3c(=O)n(CCN4CCOCC4)ccc23)c(OC)c1 . Output inhibition at 0.3 µM: 0 to 25%

Recorded result, Cc1ccc(CCC(=O)Nc2cccc3c(=O)n(CCN4CCOCC4)ccc23)c(C)c1 , inhibition at 0.3 µM: 0 to 25%

The recorded inhibition at 0.3 µM for entry Cc1cc(C)cc(CC(=O)Nc2cccc3c(=O)n(CC(C)(C)C)ccc23)c1 equals 0 to 25%

Further cases:
// inhibition at 0.3 µM lookup, compound = CC(C)(C)Cn1ccc2c(NC(=O)c3ccc4ccccc4c3)cccc2c1=O , result: 0 to 25%

Reported inhibition at 0.3 µM of COCCn1ccc2c(NC(=O)CCCc3ccccc3)cccc2c1=O : 0 to 25%

Reported inhibition at 0.3 µM for COc1ccc(CC(=O)Nc2cccc3c(=O)n(C)ccc23)cc1 was 0 to 25%

get_value(item= Cn1ccc2c(NC(=O)CCc3cccc(Cl)c3)cccc2c1=O , readout=inhibition at 0.3 µM) returns ≥ 76%

// inhibition at 0.3 µM lookup, compound = CCOc1ccccc1CC(=O)Nc1cccc2c(=O)n(CCOC)ccc12 , result: 0 to 25%

Entry Cc1ccccc1CC(=O)Nc1cccc2c(=O)n(CC(C)(C)C)ccc12 , inhibition at 0.3 µM reported as 0 to 25%

Looking up COCCn1ccc2c(NC(=O)c3ccc(C)c(Cl)c3)cccc2c1=O , I see its inhibition at 0.3 µM listed as 26 to 50%

inhibition at 0.3 µM for O=C(CCCc1ccccc1)Nc1cccc2c(=O)n(CCN3CCOCC3)ccc12 is 0 to 25%

// recorded inhibition at 0.3 µM for CC(=O)OCCn1ccc2c(NC(=O)CC3CCCCC3)cccc2c1=O : ≥ 76%

The compound listed as COCCn1ccc2c(NC(=O)Cc3ccc(OC)c(OC)c3)cccc2c1=O has a reported inhibition at 0.3 µM of 0 to 25%

Cc1cc(Cl)ccc1C(=O)Nc1cccc2c(=O)n(CCN3CCOCC3)ccc12 yielded inhibition at 0.3 µM of 0 to 25%

Value of inhibition at 0.3 µM reported for the compound COc1cccc(CC(=O)Nc2cccc3c(=O)n(C)ccc23)c1 is 26 to 50%

Notebook: COCCn1ccc2c(NC(=O)c3cccc(C)c3Cl)cccc2c1=O , inhibition at 0.3 µM read as 0 to 25%
